IC50 values, listed per item
# measurement-target: recombinant human baculovirus-expressed GST-tagged FASN (Homo sapiens)
# Construct: GST
# Sequence (P49327 whole entry): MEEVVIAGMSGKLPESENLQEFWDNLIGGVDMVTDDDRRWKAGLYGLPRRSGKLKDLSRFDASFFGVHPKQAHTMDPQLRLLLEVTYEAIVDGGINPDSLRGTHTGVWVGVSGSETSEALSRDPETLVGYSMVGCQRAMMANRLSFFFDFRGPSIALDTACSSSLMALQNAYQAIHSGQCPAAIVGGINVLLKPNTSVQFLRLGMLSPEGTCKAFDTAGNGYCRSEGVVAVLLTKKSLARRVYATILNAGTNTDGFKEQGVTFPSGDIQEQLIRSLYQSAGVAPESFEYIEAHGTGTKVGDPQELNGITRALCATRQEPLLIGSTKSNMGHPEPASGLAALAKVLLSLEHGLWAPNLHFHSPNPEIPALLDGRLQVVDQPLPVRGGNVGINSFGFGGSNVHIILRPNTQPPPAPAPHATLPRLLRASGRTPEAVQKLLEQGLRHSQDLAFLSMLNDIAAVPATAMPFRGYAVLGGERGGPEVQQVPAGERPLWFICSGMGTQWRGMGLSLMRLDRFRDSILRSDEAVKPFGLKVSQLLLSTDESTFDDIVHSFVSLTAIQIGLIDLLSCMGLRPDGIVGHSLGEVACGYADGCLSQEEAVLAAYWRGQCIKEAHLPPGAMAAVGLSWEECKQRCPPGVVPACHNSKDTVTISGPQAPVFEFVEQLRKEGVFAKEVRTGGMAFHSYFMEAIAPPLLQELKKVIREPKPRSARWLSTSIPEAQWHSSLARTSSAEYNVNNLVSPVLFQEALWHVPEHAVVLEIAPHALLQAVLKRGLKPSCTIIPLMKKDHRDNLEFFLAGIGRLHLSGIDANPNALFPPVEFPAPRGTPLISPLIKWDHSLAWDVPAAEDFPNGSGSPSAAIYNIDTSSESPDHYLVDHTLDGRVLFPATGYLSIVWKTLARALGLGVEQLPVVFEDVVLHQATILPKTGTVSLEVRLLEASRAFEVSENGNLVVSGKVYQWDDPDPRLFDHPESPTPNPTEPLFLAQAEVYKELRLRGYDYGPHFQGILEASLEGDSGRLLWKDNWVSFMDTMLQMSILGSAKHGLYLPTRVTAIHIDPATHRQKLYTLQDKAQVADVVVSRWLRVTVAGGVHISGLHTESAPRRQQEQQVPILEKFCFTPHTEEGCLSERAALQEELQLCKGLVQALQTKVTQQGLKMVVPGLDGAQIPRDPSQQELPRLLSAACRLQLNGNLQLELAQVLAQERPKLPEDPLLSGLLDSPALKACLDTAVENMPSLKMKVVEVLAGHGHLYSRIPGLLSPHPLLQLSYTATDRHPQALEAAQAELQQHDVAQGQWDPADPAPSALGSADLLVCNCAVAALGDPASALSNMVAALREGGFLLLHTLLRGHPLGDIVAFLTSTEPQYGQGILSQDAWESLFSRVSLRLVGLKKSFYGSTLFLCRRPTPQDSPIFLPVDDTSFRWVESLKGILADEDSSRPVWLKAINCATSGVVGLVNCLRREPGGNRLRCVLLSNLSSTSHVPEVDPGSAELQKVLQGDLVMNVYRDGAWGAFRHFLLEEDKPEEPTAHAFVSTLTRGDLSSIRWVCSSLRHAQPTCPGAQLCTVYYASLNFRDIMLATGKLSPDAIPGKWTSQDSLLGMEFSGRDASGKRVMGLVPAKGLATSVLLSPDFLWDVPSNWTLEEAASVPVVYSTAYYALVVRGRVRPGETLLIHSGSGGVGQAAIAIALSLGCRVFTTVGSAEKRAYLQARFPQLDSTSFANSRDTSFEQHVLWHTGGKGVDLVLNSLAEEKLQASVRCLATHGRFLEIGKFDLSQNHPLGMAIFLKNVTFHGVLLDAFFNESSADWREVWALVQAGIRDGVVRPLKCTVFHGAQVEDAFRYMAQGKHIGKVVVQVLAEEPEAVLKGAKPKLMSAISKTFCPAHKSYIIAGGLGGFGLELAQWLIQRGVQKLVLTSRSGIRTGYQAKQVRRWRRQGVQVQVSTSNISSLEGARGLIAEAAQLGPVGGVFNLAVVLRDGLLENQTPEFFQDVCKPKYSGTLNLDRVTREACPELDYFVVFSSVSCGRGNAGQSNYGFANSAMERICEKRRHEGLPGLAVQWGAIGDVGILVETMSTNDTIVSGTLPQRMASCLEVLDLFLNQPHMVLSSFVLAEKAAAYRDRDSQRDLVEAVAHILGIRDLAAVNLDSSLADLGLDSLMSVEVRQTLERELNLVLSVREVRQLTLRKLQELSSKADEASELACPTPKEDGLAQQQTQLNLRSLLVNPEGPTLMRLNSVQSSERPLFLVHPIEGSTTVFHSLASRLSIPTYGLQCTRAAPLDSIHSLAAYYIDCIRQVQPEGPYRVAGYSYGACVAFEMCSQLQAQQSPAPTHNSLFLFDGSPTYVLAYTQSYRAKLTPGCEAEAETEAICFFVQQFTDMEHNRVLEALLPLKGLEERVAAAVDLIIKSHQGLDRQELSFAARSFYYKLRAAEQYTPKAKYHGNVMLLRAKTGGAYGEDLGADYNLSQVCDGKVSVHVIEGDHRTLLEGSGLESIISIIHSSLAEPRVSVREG
# assay-method-text: biochemical
# applied-conditions: 5 nM FASN, 150 μM NADPH, 10 μM acetyl-CoA, 25 μM malonyl-CoA, 90 minutes incubation; read-out: IC50 data for Compounds of Formula I, Activity
Structures can show the parent of a compound that is named as a salt.

[
  {
    "molecule": "O=C([C@H]1CCCO1)N1CCC2(CCc3cc(-c4ccc5cccnc5c4Cl)ccc3O2)CC1 [Example 11, HCl]",
    "IC50": "1 to 99 nM"
  },
  {
    "molecule": "Cc1c(-c2ccc3c(c2)CCC2(CCN(C(N)=O)CC2)O3)ccc2nccn12",
    "IC50": "100 to 999 nM"
  },
  {
    "molecule": "Cc1c(-c2ccc3c(c2)CCC2(CCN(C(=O)NOC(C)C)CC2)O3)ccc2cccnc12",
    "IC50": "1 to 99 nM"
  },
  {
    "molecule": "Cc1c(-c2ccc3c(c2)CC2(CCN(C(=O)NO)CC2)O3)ccc2cccnc12",
    "IC50": "1000 to 10000 nM"
  },
  {
    "molecule": "Cc1c(-c2ccc3c(c2)CCC2(CCN(C(=O)NO)CC2)O3)cnc2ccccc12",
    "IC50": "100 to 999 nM"
  },
  {
    "molecule": "CONC(=O)N1CCC2(CCc3cc(-c4ccc5c(C)nccc5c4)ccc3O2)CC1",
    "IC50": "1 to 99 nM"
  },
  {
    "molecule": "CONC(=O)N1CCC2(CC1)Cc1cc(-c3ccc4ccnn4c3C)ccc1O2",
    "IC50": "1000 to 10000 nM"
  },
  {
    "molecule": "CCCNC(=O)N1CCC2(CCc3cc(-c4ccc5c(C)nccc5c4)ccc3O2)CC1",
    "IC50": "1 to 99 nM"
  }
]

Hello, the source for this data is patent US12448392B2, in case you need it.
